These data points were gathered from PubChem BioAssay (NCI).

Tested on: RXF 393 renal
Assay: NCI-60 one-dose screen, 48 h (100 = growth as untreated, 0 = no growth, -100 = all killed)
Conditions: 10 µM unless noted
Procedure: Cells are grown in 96 well plates and exposed to the test compound for 48 hours. Compounds are tested at a single concentration, which is 10^-5 M for most compounds. The reported endpoint is percent growth (GI% or GIPRCNT), where numbers from 0 - 100% represent growth inhibition, and numbers from -100% - 0 represent cell death. For example, a value of 40 represents 60% growth inhibition. A value of 0 means no net growth occurred over the course of the experiment. […]
About 83,000 compounds went through this panel and 20% of them were active in at least one assay; those are over-represented in the sample as a whole.
metric: growth (%)

compound	metric	readoutValue
COc1cc(F)c(/C=C/c2cc(/C=C/c3cc(OC)c(OC)cc3F)n(-c3cc(F)cc(F)c3)n2)cc1OC	growth	85.6
CCN1CCN(CC(=O)Nc2nc3ccc(NCc4ccc(C)cc4)cc3s2)CC1	growth	56.1
CN(C)CCN1C(=O)c2c(c3c4ccccc4n4c3c3c2c2ccccc2n3C2CC(O)C(O)C4(C)O2)C1=O (centres undefined)	growth	29.9
COc1cc(N=Nc2ccc(O)c3ncccc23)c2ncccc2c1	growth	52.5

* * *

System: MCF7 breast
Assay: NCI-60 one-dose screen, 48 h
Settings: 10 µM unless noted
Compounds without any hit were thinned out: in the full panel of roughly 83,000, 20% have a hit. Activity calls are given as the source filed them. The calls were made as follows: active = growth percent below 10; inactive = the rest.
Classes used: Y = active, N = inactive

compound	classification
COc1ccc(/C=N/C2=C(C#N)C(c3ccccc3)c3c(ccc4ccccc34)O2)cc1 (configuration not stated)	N
O=c1oc2c(Br)cc(Br)cc2cc1-c1cc(-c2ccc(-c3cc(-c4cc5cc(Br)cc(Br)c5oc4=O)nc(-c4cc5cc(Br)cc(Br)c5oc4=O)c3)cc2)cc(-c2cc3cc(Br)cc(Br)c3oc2=O)n1	N
COC1=CC(c2ccc[nH]2)=N/C1=C\c1[nH]c(C)c(C(=O)Oc2ccccc2)c1C	Y
Cn1cc(-c2csc(-c3c[nH]c4ccc(F)cc34)n2)c2cnccc21	Y
O=C1OCC2=C1C(c1cccc([N+](=O)[O-])c1)c1cc3c(cc1N2CCO)CCC3 (configuration not stated)	N
O=C1OCC2=C1C(c1cccc(C(F)(F)F)c1)c1cc3c(cc1N2CCO)OCCO3 (configuration not stated)	N
CCOC(=O)c1ccc(Nc2ncnc3c2cnn3-c2cccc(F)c2)cc1	N
Cc1c(C(=O)OCCCCOC(=O)c2c(C)n(C)c3scc[n+]23)[n+]2ccsc2n1C	N
N#C/C(=C\c1ccccc1Cl)c1cc2ccccc2[nH]1	N
CCOC(=O)c1c(-c2ccc(C)cc2)c(C#N)c(=O)n(-c2cccc(C(F)(F)F)c2)c1N	N
CSc1nnc(-c2cc3c([nH]c4ccccc43)c(-c3cccc(O)c3)n2)n1-c1ccc(C)cc1	Y
CCOc1nc(-c2ccccc2)cc2c(O)c(C(=O)N/N=C/c3ccc(N(C)C)cc3)[nH]c(=O)c12	N
Nc1nc(N)c2c(n1)NC(c1cccc(Nc3ccnc4cc(C(F)(F)F)ccc34)c1)CC(c1ccc(F)cc1)=N2 (configuration not stated)	N
COC(=O)[C@H]1Cc2c([nH]c3ccccc23)[C@@H](c2cccs2)N1	N
COc1ccc2c(c1)oc1c(C)c3c(c(C)c12)C(=O)N(Nc1ccccc1)C3=O	N
Cc1nn(-c2nc(-c3cc4ccccc4oc3=O)cs2)c(C)c1N=Nc1ccccc1	N
COC(=O)/C=C1/SC(=Nc2ccc([N+](=O)[O-])cc2)N(CCc2c[nH]c3ccccc23)C1=O	N
CCNC(=O)Oc1ccc(/C(=C(/C)Cc2ccc(OC)cc2)c2ccc(OCCN(CC)CC)cc2)cc1	N
NS(=O)(=O)c1ccc(C(=O)N=Nc2c(O)[nH]c3c(F)cccc23)cc1	N
O=C1Nc2ccccc2/C1=C/c1cccn1CCCCCn1c2ccccc2c(=O)c2ccccc21	Y
CN1CCN(C(=O)OCc2nc3c(N4CCOCC4)nc(Cl)nc3n2C)CC1	Y
Cc1ccc2nc3ccccc3c(NCc3ccc(Cl)cc3)c2c1	Y
CCCCC(NC(=O)CN1C(=O)/C(=C/C(C)=C/c2ccccc2)SC1=S)C(=O)O (configuration not stated)	N
CCCCCCNC(=O)Oc1ccc(/C(=C(/CC)Cc2ccccc2)c2ccc(OCCCN(C)C)cc2)cc1	N
COc1ccc2c(O)c(/C=C3\N=Nc4nc(C)ccc43)oc2c1CC1CCNCC1	N
CCN1C(=S)N(CC)C2C1NC(=S)N2/N=C/C=C/c1ccccc1 (configuration not stated)	N
COc1ccc(/C=C(\C#N)c2cc3ccccc3[nH]2)cc1	N
Cc1ccc(C(=O)Nc2ccc(CN3CCN(C)CC3)c(C(F)(F)F)c2)cc1C#Cc1cnc(N)cc1C#N	Y
C#CCOCC1CN(C)C(=O)O1 (configuration not stated)	N
COc1ccc2c(c1)c(C(=O)c1nc(-c3cn(C)c4ccccc34)no1)cn2C	N
CCCCn1c(C(=O)c2c[nH]c3ccccc23)n[nH]c1=S	N
O=C(CCCOc1ccc(Br)cc1)Nc1ncc(Cc2ccc(F)cc2)s1	N

* * *

Test system: MALME-3M melanoma
Assay: NCI-60 one-dose screen, 48 h
Details: 10 µM unless noted
This is part of a sample that, as a whole, favours compounds with a hit. Of some 83,000 tested, about 20% had one in any assay. Activity calls are given as the source filed them. How the source made its calls: active means growth percent below 10; inactive means the rest.
Classes used: Yes for active, No for inactive

compound	classification
COC(=O)N/N=C/c1c[n+]([O-])c2ccccc2[n+]1[O-]	No
COc1ccc(-c2nnc3n(C)c(=O)c4ccccc4n23)cc1O	No
COc1ccc(/C=N/C2=C(C#N)C(c3ccccc3)c3c(ccc4ccccc34)O2)cc1 (stereo not given)	No
CCN1C(=S)N(CC)C2C1NC(=S)N2/N=C/C=C/c1ccccc1 (stereo not given)	No
Cc1ccc(C(=O)Nc2ccc(CN3CCN(C)CC3)c(C(F)(F)F)c2)cc1C#Cc1cnc(N)cc1C#N	Yes

* * *

Tested on: NCI-H460 lung
Experiment: NCI-60 one-dose screen, 48 h (100 = growth as untreated, 0 = no growth, -100 = all killed)
Conditions: 10 µM unless noted
This is part of a sample that, as a whole, favours compounds with a hit. Of some 83,000 tested, about 20% had one in any assay.
Reported growth values follow for various compounds

compound	growth / %
Clc1cccc(Nc2ncnc3ccc(-c4cncc(-n5cnnn5)c4)cc23)c1	81.6
COc1cc(-c2[nH]ncc2Nc2ccc(Cl)cc2)cc(OC)c1OC	73.6
CCOC(=O)C1=C(C)N=C2SC=C(c3ccc(F)cc3)N2[C@H]1c1cn(-c2ccccc2)nc1-c1ccc(Cl)cc1	102
CC12OC(CC(O)C1O)n1c3ccccc3c3c4c(c5c6ccccc6n2c5c31)C(=O)N(CCN1CCOCC1)C4=O (configuration not stated)	-12.5
O=C(/C=C/c1ccc([N+](=O)[O-])cc1)c1ccccc1	105
COc1cc2ncnc(Nc3ccc(F)c(Cl)c3)c2cc1OCC(=O)N1CCCCC1	95.5
Cc1c(C(=O)OCCCCOC(=O)c2c(C)n(C)c3scc[n+]23)[n+]2ccsc2n1C	108
Cc1ccc(-c2nc(C#N)c(S(=O)(=O)N(C)C)o2)cc1	110
COc1ccc(Oc2nc(Nc3ccc(N4CCOCC4)cc3)ncc2NC(=O)c2cccc(C(F)(F)F)c2)cc1	70.2
Clc1ccc(Nc2nc(Nc3ccc(Cl)cc3)nc(Nc3ccc(-c4cc(-c5cccc(Cl)c5)on4)cc3)n2)cc1	96.1
CCN(CC)CCOc1ccc(/C(=C(\Cl)c2ccccc2)c2ccccc2)cc1	5.92
CC(C)=CCc1cc(O)c(O)c2oc3cc(O)cc(O)c3c(=O)c12	25.1
Cc1ccc(-c2nc3nc(-c4ccccc4)nc(N4CCN(S(=O)(=O)c5ccccc5)CC4)c3o2)cc1	73.3
Cn1cc(-c2nonc2-c2cn(C)c3ccc(Br)cc23)c2ccccc21	12.9
CSc1nnc(-c2cc3c([nH]c4ccccc43)c(-c3cccc(O)c3)n2)n1-c1ccc(C)cc1	11.4
COc1ccccc1/C=C1\COc2ccc(O)c(O)c2C1=O	24.6
Nc1ccc(-c2ccc(N)c(Br)c2)cc1Br	44.3
Cc1ccccc1SSc1ccccc1C	37.4
COc1ccc(-c2cc(-c3cccc(Cl)c3)c(C#N)c(=O)[nH]2)c(OC)c1	98.7
O=C(Nc1ccc2ccccc2c1)c1cc2ccccc2cc1O	85.4
Nn1c(-c2ccc(Cl)cc2)nc2c(-c3ccc(Cl)cc3)nc3ccc(Cl)cc3c2c1=O	-63.2
CN1Cn2c(ccc2C(F)(F)F)C(=O)CS1(=O)=O	110

* * *

Tested on: SN12C renal
Assay: NCI-60 one-dose screen, 48 h (100 = growth as untreated, 0 = no growth, -100 = all killed)
Details: 10 µM unless noted
Procedure: Growth inhibition of the SN12C human tumor cell line is measured as a screen for anti-cancer activity. Cells are grown in 96 well plates and exposed to the test compound for 48 hours. Compounds are tested at a single concentration, which is 10^-5 M for most compounds. The reported endpoint is percent growth (GI% or GIPRCNT), where numbers from 0 - 100% represent growth inhibition, and numbers from -100% - 0 represent cell death. For example, a value of 40 represents 60% growth inhibition. […]
Compounds without any hit were thinned out: in the full panel of roughly 83,000, 20% have a hit.

compound	growth (%)
Cc1ccc(NC(=O)N/C(N)=N/c2nc(=O)c3ccccc3s2)cc1	93.8
CN(Cc1ccccc1)c1nc(Cl)c(C2CC(c3ccc(F)cc3)=NN2C=O)s1 (stereo unspecified)	103
N=C1/C(=C2\NC3C=CC=CC3S2)C(c2ccc(Cl)cc2)C2C(=O)N(c3ccccc3)C(=S)N12 (stereo unspecified)	99.7
C=C(C)[C@@H]1CC[C@]2(C)[C@H](CC(=O)N[C@H]3[C@@H]4C[C@](C)(C(=O)OC)CC[C@]4(C)CC[C@]32C)[C@@]1(C)CCC#N	79.4
CS(=O)(=O)Nc1cc(-c2ccc3ncnc(Nc4ccc(F)c(Cl)c4)c3c2)cnc1Cl	10.2
CC/C=C\C/C=C\C[C@H](O)C/C=C1/C(=O)C=C[C@@H]1C/C=C\CCCC(=O)OC	-29.2
COc1ccc(-c2cc(-c3cc(OC)c(OC)c(OC)c3)c(C#N)c(=O)n2CCCCC(=O)O)cc1	90.6
CCN1C(=S)N(CC)C2C1NC(=S)N2/N=C/C=C/c1ccccc1 (stereo unspecified)	40.8
CCN(CC)CCOc1ccccc1C	98.7
Nc1n[nH]c2cccc(C#Cc3cccc(C(=O)Nc4ccc(CN5CCOCC5)c(C(F)(F)F)c4)c3)c12	54.8
COc1cc(CO)cc2cc3ccccc3nc12	101
